Values from patent US20230295313A1

measured-target: T1, human IL1RAP extracellular domain protein (GK002, HuIL1Racp-ECD-His6) (human, UniProt Q9NPH3 21-367)
T1 construct: also called His-tagged human IL-1RAP extracellular domain protein; HuIL1RAP-ECD-His6 (GK002)
T1 sequence: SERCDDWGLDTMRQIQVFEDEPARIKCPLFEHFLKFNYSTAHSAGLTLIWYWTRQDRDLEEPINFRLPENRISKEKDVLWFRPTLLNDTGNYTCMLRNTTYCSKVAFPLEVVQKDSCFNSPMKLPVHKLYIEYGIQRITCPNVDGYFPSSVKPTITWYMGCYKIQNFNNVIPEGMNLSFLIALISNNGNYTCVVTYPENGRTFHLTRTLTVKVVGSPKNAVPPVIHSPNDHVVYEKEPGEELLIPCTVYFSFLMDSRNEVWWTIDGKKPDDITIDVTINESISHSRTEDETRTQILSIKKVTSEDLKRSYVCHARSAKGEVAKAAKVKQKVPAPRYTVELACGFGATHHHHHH
assay-name: SPR (Biacore T200), mAb captured by anti-Fc IgG, His-tagged human IL1RAP ECD as analyte
Task for the reader: assign each of the following binders its reported kon.
Please answer in the form of a number followed by its unit of measurement.

Notebook: murine mAb001 (antibody, V domains shown, Murine anti-human IL1RAP mAb) VH: QVQLQQPGAELVRPGSSVKLSCKASGYTFTSYWMDWVKQRPGQGLEWIGNIYPSDSKTHYNQKFKDKATLTVDKSSSTAYMQLSSLTSEDSAVYYCARDYYGSIGMDYWGQGTSVTVSS VL: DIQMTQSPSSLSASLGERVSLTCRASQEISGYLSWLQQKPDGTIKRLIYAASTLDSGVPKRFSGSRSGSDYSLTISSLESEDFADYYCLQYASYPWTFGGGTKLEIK , kon read as 56700 M⁻¹ s⁻¹

Record mAb063 (antibody, V domains shown, Murine anti-human IL1RAP mAb; also called murine mAb063) VH: EVQLQQSGPELVKPGASVKISCKASGYTFTDYYMNWVKQSHGKSLEWIGHINPNSGSTTYTEKFKDKATLTVDKSSSTAYMELRSLTSDDSAVYYCVRRIGKNWHCDVWGTGTTVTVSS VL: DIVLTQSPASLAVSLGQRATISCRASESVNFHGTHLMHWYQQKPGQAPKLLIYAASNLDSGVPARFSGSGSETDFTLNIHPVEEEDAATYFCQQSIEDPFTFGSGTYLEIK , field kon: 426000 M⁻¹ s⁻¹

Value of kon reported for the binder murine mAb067 (antibody, V domains shown, Murine anti-human IL1RAP mAb) VH: QVKLHQSGAELAKPGASVKMSCKASGYTFNSYWIHWVKQRPGQGLEWIGYNNPTSGYSEYNQKFTDKATLSADKSSSTAYMQLSSLTSEDSAVYYCVREYGDLFAYWGQGTLVTVSA VL: NIVMTQSPKSMSMSVGERVTLSCKASENVGYSVSWFQQKPDQSPKLLIYGASNRYTGVPDRFTGSGSATDFTLTISTVQAEDLADYHCGQIYIYPYTFGGGTKLEIK is 340000 M⁻¹ s⁻¹

Entry murine mAb048 (antibody, V domains shown, Murine anti-human IL1RAP mAb) VH: QVQLQQPGADLVKPGASVKLSCKAYGYTFFSYWMHWVRQRPGQGLEWIGMIHPNSGTTNNNEKFKSKATLTVDKSFSTAYMQLSSLTSEDSAVYYCARGYSNYDFDYWGQGTILTVSS VL: DIKMTQFPSSMYASLGERVTITCKASQDINTYLIWIQQKPGKSPKTLIYRANRLADGVPSRFSGSGSGQDSSLTISSLEHEDMGIYYCLQYDEFPYTFGGGTKLEIK , kon reported as 125000 M⁻¹ s⁻¹

Per the record, murine mAb117 (antibody, V domains shown, Murine anti-human IL1RAP mAb) VH: QAYLQQSGAELVRPGASVKMSCKASGYTFTSYNMHWVKQSPRQGLEWVGVFYLGNGDTSYNEKFKGKATLTVDKSSSTAYMQLSSLTSEDSAVYFCARPGGYANWYFDVWGTGTTVTVSS VL: DIVMTQSQKFMSTSVGDWVSVTCKASQNVGTEVSWYQQKPGQSPNTLIYSASYRHSGVPDRFTGSGSGTEFTLTITNVQSEDLADYFCQQYNSFPLTFGAGTKLDLK has kon of 222000 M⁻¹ s⁻¹
